Data credit: patent US20210061908A1

Let's look at some binders and their measured percentage binding.
Target: T1, human IGSF11 (VSIG3) expressed on the surface of cells (human, UniProt Q5DX21 23-431)
T1 construct: one molecule for all cell lines; the cell line is named under assay; also called IGSF11-expressing cells; HEK-OE
T1 sequence: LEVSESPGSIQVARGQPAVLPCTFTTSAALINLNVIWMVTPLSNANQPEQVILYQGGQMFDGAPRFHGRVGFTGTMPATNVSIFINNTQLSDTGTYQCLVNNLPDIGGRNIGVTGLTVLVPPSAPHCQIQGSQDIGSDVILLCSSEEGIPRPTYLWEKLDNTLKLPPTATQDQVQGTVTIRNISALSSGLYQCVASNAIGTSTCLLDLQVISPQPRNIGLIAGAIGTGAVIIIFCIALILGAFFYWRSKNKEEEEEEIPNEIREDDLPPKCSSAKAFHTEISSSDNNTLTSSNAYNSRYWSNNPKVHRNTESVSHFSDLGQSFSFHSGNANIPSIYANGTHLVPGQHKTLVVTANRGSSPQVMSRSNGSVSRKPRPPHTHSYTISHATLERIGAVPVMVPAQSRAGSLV
Assay: FACS on DMS 273 cells treated with IGSF11 siRNA (KD: target knocked down, specificity control)
Property measured: percentage binding (%)

• B-002 (chain-swapped, human IgG1 format) (antibody, V domains shown, VH of A-006 with VL of A-012; IgG1 format; also called B2; Chains-B-002) VH: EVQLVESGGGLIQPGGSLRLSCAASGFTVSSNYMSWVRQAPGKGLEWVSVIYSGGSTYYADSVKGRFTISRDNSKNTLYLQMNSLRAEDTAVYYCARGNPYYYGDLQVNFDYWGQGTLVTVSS VL: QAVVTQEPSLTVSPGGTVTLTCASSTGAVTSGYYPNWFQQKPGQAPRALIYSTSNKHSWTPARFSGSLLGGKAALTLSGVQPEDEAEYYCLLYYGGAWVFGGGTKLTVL = 8.68
• A-011 (human IgG1 format) (antibody, V domains shown, human IgG1 format) VH: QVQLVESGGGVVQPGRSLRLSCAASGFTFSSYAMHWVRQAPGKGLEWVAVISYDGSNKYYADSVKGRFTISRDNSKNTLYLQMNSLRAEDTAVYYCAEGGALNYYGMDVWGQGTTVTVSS VL: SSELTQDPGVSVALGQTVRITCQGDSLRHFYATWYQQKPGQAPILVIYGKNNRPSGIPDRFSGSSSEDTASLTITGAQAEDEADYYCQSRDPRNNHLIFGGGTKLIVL = 3.4
• A-026 (human IgG1 format) (antibody, V domains shown, human IgG1 format) VH: QVQLQESGPGLVKPSQTLSLTCTVSGGSISSGGYYWSWIRQHPGKGLEWIGYIYYSGSTYYNPSLKSRVTISVDTSKNQFSLKLSSVTAADTAVYYCASWSLGTSNHGWFDPWGQGTLVTVSS VL: QSVLTQPPSASGTPGQRVTISCSGSSSNIGSNTVNWYQQLPGTAPKLLISDNNNRPSGVPDRFSGSKSGTSASLAITGLQAEDEADYYCQSYDSNLSGWVFGGGTKLTVL = 3.81
• A-006 (human IgG1 format) (antibody, V domains shown, human IgG1 format) VH: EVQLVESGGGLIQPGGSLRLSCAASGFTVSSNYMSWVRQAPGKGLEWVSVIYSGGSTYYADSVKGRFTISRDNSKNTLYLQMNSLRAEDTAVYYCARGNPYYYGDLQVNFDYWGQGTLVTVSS VL: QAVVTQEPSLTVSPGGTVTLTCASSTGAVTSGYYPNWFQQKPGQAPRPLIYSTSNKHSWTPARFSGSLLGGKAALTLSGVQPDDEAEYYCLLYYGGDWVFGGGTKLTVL = 5.72
• A-012 (human IgG1 format) (antibody, V domains shown, human IgG1 format) VH: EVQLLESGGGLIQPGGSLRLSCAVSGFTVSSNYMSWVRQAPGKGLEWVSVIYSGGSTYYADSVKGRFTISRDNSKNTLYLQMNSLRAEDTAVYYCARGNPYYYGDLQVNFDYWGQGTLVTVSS VL: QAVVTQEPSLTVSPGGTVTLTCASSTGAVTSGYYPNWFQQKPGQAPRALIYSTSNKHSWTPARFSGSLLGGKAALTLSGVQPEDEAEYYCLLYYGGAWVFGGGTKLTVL = 4.77
